Source listed as ChEMBL document CHEMBL1140117.

# Tested on: Epithelial cell
# assay procedure: Antiproliferative activity against human bladder epithelial cells assessed as inhibition of [3H]thymidine incorporation at <25 uM after 48 hrs relative to as-APF
# Assay type: functional, cell-based
The source made the active and inactive calls. No cut-off for these calls is given here. Residues, ends and D or L forms follow the SMILES beside them. *: point of attachment. X1 = CC(=O)N[C@@H]1[C@@H](O[C@@H]2O[C@H](CO)[C@H](O)[C@H](O)[C@H]2O)[C@@H](O)[C@@H](CO)O[C@@H]1*
parameter: Activity

compound | result
CC(=O)N[C@H]1[C@@H](O[C@H](C)[C@H](N)C(=O)N[C@H](C(=O)N2CCC[C@H]2C(=O)N[C@@H](C)C(=O)NCC(=O)N[C@H](C(=O)N[C@H](C(=O)N[C@H](C(=O)NCC(=O)O)C(C)C)C(C)C)C(C)C)C(C)C)O[C@H](CO)[C@H](O)[C@@H]1O[C@@H]1O[C@H](CO)[C@H](O)[C@H](O)[C@H]1O (H-T(X1)VPAGVVVG-OH) | inactive
CC(=O)N[C@H]1[C@@H](O[C@H](C)[C@H](N)C(=O)N[C@H](C(=O)N2CCC[C@H]2C(=O)N[C@@H](C)C(=O)N[C@@H](C)C(=O)N[C@H](C(=O)N[C@H](C(=O)N[C@H](C(=O)N[C@@H](C)C(=O)N[C@@H](CCCCN)C(=O)O)C(C)C)C(C)C)C(C)C)C(C)C)O[C@H](CO)[C@H](O)[C@@H]1O[C@@H]1O[C@H](CO)[C@H](O)[C@H](O)[C@H]1O (H-T(X1)VPAAVVVAK-OH) | inactive
CC[C@H](C)[C@H](NC(=O)[C@H](C)NC(=O)[C@H](C)NC(=O)[C@@H]1CCCN1C(=O)[C@@H](NC(=O)[C@@H](N)[C@@H](C)O[C@H]1O[C@H](CO)[C@H](O)[C@H](O[C@@H]2O[C@H](CO)[C@H](O)[C@H](O)[C@H]2O)[C@H]1NC(C)=O)C(C)C)C(=O)N[C@H](C(=O)N[C@H](C(=O)N[C@@H](C)C(=O)O)[C@@H](C)CC)C(C)C (H-T(X1)VPAAIVIA-OH) | inactive

###

# Tested on: Epithelial cell
# assay procedure: Antiproliferative activity against human bladder epithelial cells assessed as inhibition of [3H]thymidine incorporation at <25 uM after 48 hrs relative to as-APF
# Assay type: functional, cell-based
The source made the active and inactive calls. No cut-off for these calls is given here. Starred links: 1 amine or outer side, 2 acyl side, 3 side chain; linkers in the order of their positions; H or OH if unused. Non-standard residues stand in square brackets, D forms with d. Residues, ends and D or L forms follow the SMILES beside them. *: point of attachment. X1 = CC(=O)N[C@@H]1[C@@H](O[C@@H]2O[C@H](CO)[C@H](O)[C@H](O)[C@H]2O)[C@@H](O)[C@@H](CO)O[C@@H]1*; X2 = CC1(C)OC[C@@H](C(=O)[*:2])N1[*:1]
parameter: Activity

compound | result
CC(=O)N[C@H]1[C@@H](O[C@H](C)[C@H](N)C(=O)N[C@H](C(=O)N2[C@H](C(=O)N[C@@H](C)C(=O)N[C@@H](C)C(=O)N[C@H](C(=O)N[C@H](C(=O)N[C@H](C(=O)N[C@@H](C)C(=O)O)C(C)C)C(C)C)C(C)C)COC2(C)C)C(C)C)O[C@H](CO)[C@H](O)[C@@H]1O[C@@H]1O[C@H](CO)[C@H](O)[C@H](O)[C@H]1O (H-T(X1)V[X2]AAVVVA-OH) | inactive
CC(=O)N[C@H]1[C@@H](O[C@H](C)[C@H](N)C(=O)N[C@@H](Cc2ccc(O)cc2)C(=O)N2CCC[C@H]2C(=O)N[C@@H](C)C(=O)N[C@@H](C)C(=O)N[C@H](C(=O)N[C@H](C(=O)N[C@H](C(=O)N[C@@H](C)C(=O)O)C(C)C)C(C)C)C(C)C)O[C@H](CO)[C@H](O)[C@@H]1O[C@@H]1O[C@H](CO)[C@H](O)[C@H](O)[C@H]1O (H-T(X1)YPAAVVVA-OH) | inactive
CC(=O)N[C@H]1[C@@H](O[C@H](C)[C@H](N)C(=O)N[C@@H](CC(C)C)C(=O)N2CCC[C@H]2C(=O)N[C@@H](C)C(=O)N[C@@H](C)C(=O)N[C@H](C(=O)N[C@H](C(=O)N[C@H](C(=O)N[C@@H](C)C(=O)O)C(C)C)C(C)C)C(C)C)O[C@H](CO)[C@H](O)[C@@H]1O[C@@H]1O[C@H](CO)[C@H](O)[C@H](O)[C@H]1O (H-T(X1)LPAAVVVA-OH) | inactive

###

# System: Epithelial cell
# assay procedure: Antiproliferative activity against human bladder epithelial cells assessed as inhibition of [3H]thymidine incorporation at <25 uM after 48 hrs relative to as-APF
# Assay type: functional, cell-based
Active and inactive are the calls of the source. No cut-off for these calls is given here. Starred links: 1 amine or outer side, 2 acyl side, 3 side chain; linkers in the order of their positions; H or OH if unused. Positions of bridges follow the written chain, without caps; N, C: chain ends. Residues, ends and D or L forms follow the SMILES beside them. *: point of attachment. X3 = CC(=O)N[C@H]1[C@@H](O[C@H](C)[C@H](NO[*:2])C(=O)[*:1])O[C@H](CO)[C@H](O)[C@@H]1O[C@@H]1O[C@H](CO)[C@H](O)[C@H](O)[C@H]1O; X1 = CC(=O)N[C@@H]1[C@@H](O[C@@H]2O[C@H](CO)[C@H](O)[C@H](O)[C@H]2O)[C@@H](O)[C@@H](CO)O[C@@H]1*
parameter: Activity

compound | result
CC(=O)N[C@H]1[C@@H](O[C@H](C)[C@@H]2NOC(=O)[C@H](C)NC(=O)[C@H](C(C)C)NC(=O)[C@H](C(C)C)NC(=O)[C@H](C(C)C)NC(=O)[C@H](C)NC(=O)[C@H](C)NC(=O)[C@@H]3CCCN3C(=O)[C@H](C(C)C)NC2=O)O[C@H](CO)[C@H](O)[C@@H]1O[C@@H]1O[C@H](CO)[C@H](O)[C@H](O)[C@H]1O (VPAAVVVA; linker N-C via X3) | inactive
CC(=O)N[C@H]1[C@@H](O[C@H](C)[C@H](N)C(=O)N[C@H](C(=O)N2CCC[C@H]2C(=O)N[C@@H](C)C(=O)N[C@@H](C)C(=O)O)C(C)C)O[C@H](CO)[C@H](O)[C@@H]1O[C@@H]1O[C@H](CO)[C@H](O)[C@H](O)[C@H]1O (H-T(X1)VPAA-OH) | inactive
CC(=O)N[C@H]1[C@@H](O[C@H](C)[C@H](N)C(=O)N[C@H](C(=O)N2CCC[C@H]2C(=O)N[C@@H](C)C(=O)N[C@@H](C)C(=O)N[C@H](C(=O)N[C@H](C(=O)N[C@H](C(=O)N[C@@H](C)C(=O)N[C@@H](CCC(=O)O)C(=O)O)C(C)C)C(C)C)C(C)C)C(C)C)O[C@H](CO)[C@H](O)[C@@H]1O[C@@H]1O[C@H](CO)[C@H](O)[C@H](O)[C@H]1O (H-T(X1)VPAAVVVAE-OH) | inactive
